Kindly state IC50 for each of the entries shown.
- target_under_test: Toxoplasma gondii dihydrofolate reductase (Toxoplasma gondii, UniProt Q07422)
- Sequence (Q07422 whole entry): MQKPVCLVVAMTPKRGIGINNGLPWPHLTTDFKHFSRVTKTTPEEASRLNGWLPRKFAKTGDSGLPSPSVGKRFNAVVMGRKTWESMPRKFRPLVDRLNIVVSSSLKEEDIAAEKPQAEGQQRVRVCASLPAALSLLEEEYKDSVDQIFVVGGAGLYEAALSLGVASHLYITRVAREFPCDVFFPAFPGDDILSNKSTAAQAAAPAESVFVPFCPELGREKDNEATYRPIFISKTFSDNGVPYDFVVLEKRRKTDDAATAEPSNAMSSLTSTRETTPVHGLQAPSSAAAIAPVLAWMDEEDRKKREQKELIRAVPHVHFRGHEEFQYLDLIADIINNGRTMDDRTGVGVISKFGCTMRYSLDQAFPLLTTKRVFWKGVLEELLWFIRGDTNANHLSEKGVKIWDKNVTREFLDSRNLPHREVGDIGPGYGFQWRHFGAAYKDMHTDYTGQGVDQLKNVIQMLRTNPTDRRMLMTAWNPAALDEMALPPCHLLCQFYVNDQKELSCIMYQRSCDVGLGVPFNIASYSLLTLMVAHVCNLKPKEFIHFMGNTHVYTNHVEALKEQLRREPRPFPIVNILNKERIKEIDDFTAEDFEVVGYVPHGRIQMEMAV
- assay_overview: biochemical
- recorded_conditions: read-out: DHFR inhibition (IC50 μM) T.gondii
Give bare numbers, in µM.

## Input Enter reported IC50 observed with Toxoplasma gondii dihydrofolate reductase (Toxoplasma gondii, UniProt Q07422) for `Nc1nc(N)c2nc(Cc3cccc4[nH]c5ccccc5c34)cnc2n1`
## Output 0.055

Continue with the next molecule.
## Input Requested read-out IC50, target or system Toxoplasma gondii dihydrofolate reductase (Toxoplasma gondii, UniProt Q07422), entry `Nc1nc(N)c2nc(CN(c3ccccc3)c3ccccc3)cnc2n1`
## Output 1.3

Reference source for all entries: patent US7056911B1
